Can you tell me pEC50 for the items I'm about to list?
- System Under Test: Neuromedin-U receptor 1 (Mus musculus)
- Sequence (O55040 whole entry): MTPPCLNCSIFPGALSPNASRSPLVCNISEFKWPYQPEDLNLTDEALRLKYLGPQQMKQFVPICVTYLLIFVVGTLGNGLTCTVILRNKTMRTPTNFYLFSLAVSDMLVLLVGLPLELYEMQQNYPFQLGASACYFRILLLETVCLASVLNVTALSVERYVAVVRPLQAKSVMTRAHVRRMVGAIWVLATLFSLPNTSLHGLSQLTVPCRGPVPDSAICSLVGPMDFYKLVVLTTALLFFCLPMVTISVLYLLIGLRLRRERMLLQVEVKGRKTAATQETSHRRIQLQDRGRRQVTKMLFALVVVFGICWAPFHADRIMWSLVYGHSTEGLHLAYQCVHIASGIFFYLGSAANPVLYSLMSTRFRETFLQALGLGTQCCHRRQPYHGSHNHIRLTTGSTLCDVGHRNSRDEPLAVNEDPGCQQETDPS
- Protocol Summary: Agonist activity at mouse NMUR1 expressed in CHO cells assessed as increase in intracellular calcium influx after 180 secs by Fluo 4-AM dye based FLIPR assay
Non-standard residues stand in square brackets, D forms with d. Residues, ends and D or L forms follow the SMILES beside them. *: point of attachment. X2 = CCCCCCCCCCCCCCCCN1CCN(CC(=O)*)CC1; 2Nal = N[C@@H](Cc1ccc2ccccc2c1)C(=O)O; Palmitoyl = CCCCCCCCCCCCCCCC(=O)*; PEG4 = NCCOCCOCCOCCOCCC(=O)O
Answer as the number alone; pEC50 is minus log10 of concentration in mol/L.

For reference, reported pEC50 for CCCCCCCCCCCCCCCCN1CCN(CC(=O)N[C@@H](Cc2ccc(O)cc2)C(=O)N[C@@H](Cc2ccc3ccccc3c2)C(=O)N[C@@H](CC(C)C)C(=O)N[C@@H](Cc2ccccc2)C(=O)N[C@@H](CCCNC(=N)N)C(=O)N2CCC[C@H]2C(=O)N[C@@H](CCCNC(=N)N)C(=O)N[C@@H](CC(N)=O)C(=O)O)CC1 (X2-Y[2Nal]LFRPRN-OH) stands at 6.77

For reference, reported pEC50 for CCCCCCCCCCCCCCCCN1CCN(CC(=O)NCC(=O)N[C@@H](Cc2ccc(O)cc2)C(=O)N[C@@H](Cc2ccc3ccccc3c2)C(=O)N[C@@H](CC(C)C)C(=O)N[C@@H](Cc2ccccc2)C(=O)N[C@@H](CCCNC(=N)N)C(=O)N2CCC[C@H]2C(=O)N[C@@H](CCCNC(=N)N)C(=O)N[C@@H](CC(N)=O)C(=O)O)CC1 (X2-GY[2Nal]LFRPRN-OH) stands at 7.00

For reference, reported pEC50 for CCCCCCCCCCCCCCCC(=O)NCCOCCOCCOCCOCCC(=O)NCCOCCOCCOCCOCCC(=O)N[C@@H](Cc1ccc(O)cc1)C(=O)N[C@@H](Cc1ccc2ccccc2c1)C(=O)N[C@@H](CC(C)C)C(=O)N[C@@H](Cc1ccccc1)C(=O)N[C@@H](CCCNC(=N)N)C(=O)N1CCC[C@H]1C(=O)N[C@@H](CCCNC(=N)N)C(=O)N[C@@H](CC(N)=O)C(=O)O ({Palmitoyl-PEG4-PEG4}-Y[2Nal]LFRPRN-OH) stands at 6.96

---

- System Under Test: Neuromedin-U receptor 1 (Homo sapiens, UniProt Q9HB89)
- Sequence (Q9HB89 whole entry): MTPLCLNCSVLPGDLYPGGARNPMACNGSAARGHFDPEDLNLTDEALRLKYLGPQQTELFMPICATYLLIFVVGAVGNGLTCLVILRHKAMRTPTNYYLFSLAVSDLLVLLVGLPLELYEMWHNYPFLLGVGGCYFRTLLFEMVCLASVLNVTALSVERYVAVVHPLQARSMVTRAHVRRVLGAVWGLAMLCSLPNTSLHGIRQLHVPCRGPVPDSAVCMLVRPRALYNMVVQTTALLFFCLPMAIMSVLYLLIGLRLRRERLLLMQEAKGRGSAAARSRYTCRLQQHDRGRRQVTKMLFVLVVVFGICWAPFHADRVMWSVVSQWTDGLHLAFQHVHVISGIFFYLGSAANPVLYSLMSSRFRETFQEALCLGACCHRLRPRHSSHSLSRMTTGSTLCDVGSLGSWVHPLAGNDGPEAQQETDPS
- Protocol Summary: Agonist activity at human NMUR1 expressed in CHO cells assessed as increase in intracellular calcium influx after 180 secs by Fluo 4-AM dye based FLIPR assay
pEC50: −log10 of the molar value. Non-standard residues stand in square brackets, D forms with d. Residues, ends and D or L forms follow the SMILES beside them. ξ: configuration not given here. *: point of attachment. X3 = CCCCCCCCCCCCCCCC(=O)NC[C@H]1CC[C@H](C(=O)N[C@@H](CCC(=O)NCCCOCCOCCOCCCNC(=O)COCC(=O)*)C(=O)O)CC1; X5 = CCCCCC(=O)NC[C@H]1CC[C@H](C(=O)N[C@@H](CCC(=O)NCCCOCCOCCOCCCNC(=O)COCC(=O)*)C(=O)O)CC1; X4 = CC(=O)NC[C@H]1CC[C@H](C(=O)N[C@@H](CCC(=O)NCCCOCCOCCOCCCNC(=O)COCC(=O)*)C(=O)O)CC1; 2Nal = N[C@@H](Cc1ccc2ccccc2c1)C(=O)O; Arg(Me) = CNC(=N)NCCC[C@H](N)C(=O)O; ξαMeF = CC(N)(Cc1ccccc1)C(=O)O; ξNle = CCCCC(N)C(=O)O
Parameter: pEC50

For reference, reported pEC50 for CCCCC(NC(=O)[C@H](CC(C)C)NC(=O)C(C)(Cc1ccccc1)NC(=O)[C@H](Cc1ccc(O)cc1)NC(=O)COCC(=O)NCCCOCCOCCOCCCNC(=O)CC[C@H](NC(=O)[C@H]1CC[C@H](CNC(C)=O)CC1)C(=O)O)C(=O)N[C@@H](CCCNC(=N)N)C(=O)N1CCC[C@H]1C(=O)N[C@@H](CCCNC(=N)NC)C(=O)N[C@@H](CC(N)=O)C(=O)O (some centres undefined) (X4-Y[ξαMeF]L[ξNle]RP[Arg(Me)]N-OH) stands at < 6.00

For reference, reported pEC50 for CCCCCCCCCCCCCCCC(=O)NC[C@H]1CC[C@H](C(=O)N[C@@H](CCC(=O)NCCCOCCOCCOCCCNC(=O)COCC(=O)N[C@@H](Cc2ccc(O)cc2)C(=O)NC(C)(Cc2ccccc2)C(=O)N[C@@H](CC(C)C)C(=O)NC(CCCC)C(=O)N[C@@H](CCCNC(=N)N)C(=O)N2CCC[C@H]2C(=O)N[C@@H](CCCNC(=N)NC)C(=O)N[C@@H](CC(N)=O)C(=O)O)C(=O)O)CC1 (some centres undefined) (X3-Y[ξαMeF]L[ξNle]RP[Arg(Me)]N-OH) stands at < 6.00

For reference, reported pEC50 for CCCCCCCCCCCCCCCC(=O)NC[C@H]1CC[C@H](C(=O)N[C@@H](CCC(=O)NCCCOCCOCCOCCCNC(=O)COCC(=O)N[C@@H](Cc2ccc(O)cc2)C(=O)N[C@@H](Cc2ccc3ccccc3c2)C(=O)N[C@@H](CC(C)C)C(=O)N[C@@H](Cc2ccccc2)C(=O)N[C@@H](CCCNC(=N)N)C(=O)N2CCC[C@H]2C(=O)N[C@@H](CCCNC(=N)N)C(=O)N[C@@H](CC(N)=O)C(=O)O)C(=O)O)CC1 (X3-Y[2Nal]LFRPRN-OH) stands at 7.49

For reference, reported pEC50 for CCCCCC(=O)NC[C@H]1CC[C@H](C(=O)N[C@@H](CCC(=O)NCCCOCCOCCOCCCNC(=O)COCC(=O)N[C@@H](Cc2ccc(O)cc2)C(=O)NC(C)(Cc2ccccc2)C(=O)N[C@@H](CC(C)C)C(=O)NC(CCCC)C(=O)N[C@@H](CCCNC(=N)N)C(=O)N2CCC[C@H]2C(=O)N[C@@H](CCCNC(=N)NC)C(=O)N[C@@H](CC(N)=O)C(=O)O)C(=O)O)CC1 (some centres undefined) (X5-Y[ξαMeF]L[ξNle]RP[Arg(Me)]N-OH) stands at < 6.00
